tested on: Capnocytophaga sputigena; test: Antimicrobial activity against Capnocytophaga sputigena CIP 104301T after 2 days by agar dilution method; type: functional; details: 48 h
So I've got a bunch of compounds here, and I need their MIC values.
Answers are plain numbers, in µg/mL.

Some entries whose results are on file:
CC1(C)S[C@@H]2[C@H](NC(=O)[C@H](N)c3ccc(O)cc3)C(=O)N2[C@H]1C(=O)O [AMOXICILLIN] : 0.25
CO/N=C(\C(=O)N[C@@H]1C(=O)N2C(C(=O)O)=C(COC(N)=O)CS[C@H]12)c1ccco1 [CEFUROXIME] : 0.5
C[C@H]1[C@H](NC(=O)/C(=N\OC(C)(C)C(=O)O)c2csc(N)n2)C(=O)N1S(=O)(=O)O [AZTREONAM] : 0.125

// batch mode: one MIC value per listed entry
1. CCN1CCN(C(=O)N[C@@H](C(=O)N[C@@H]2C(=O)N3[C@@H]2SC(C)(C)[C@@H]3C(=O)O)c2ccccc2)C(=O)C1=O [PIPERACILLIN]
2. CO[C@@]1(NC(=O)Cc2cccs2)C(=O)N2C(C(=O)O)=C(COC(N)=O)CS[C@@H]21 [CEFOXITIN]

1: 0.25; 2: 0.5

* * *

So I've got a bunch of compounds here, and I need their MIC values.
system: Escherichia coli; experiment: Antimicrobial activity against Escherichia coli TOP10 after 2 days by agar dilution method; assay type: functional; settings: TOP10, 48 h
Answers are plain numbers, in µg/mL.

Some entries whose results are on file:
CO/N=C(\C(=O)N[C@@H]1C(=O)N2C(C(=O)O)=C(COC(N)=O)CS[C@H]12)c1ccco1 : 0.5
CCN1CCN(C(=O)N[C@@H](C(=O)N[C@@H]2C(=O)N3[C@@H]2SC(C)(C)[C@@H]3C(=O)O)c2ccccc2)C(=O)C1=O : 1
CO[C@@]1(NC(=O)Cc2cccs2)C(=O)N2C(C(=O)O)=C(COC(N)=O)CS[C@@H]21 : 2
CC(=O)OCC1=C(C(=O)O)N2C(=O)[C@@H](NC(=O)Cc3cccs3)[C@H]2SC1 : 4
CC1(C)S[C@@H]2[C@H](NC(=O)[C@H](N)c3ccc(O)cc3)C(=O)N2[C@H]1C(=O)O : 2

For Escherichia coli, give MIC of the listed compound: `CC1(C)S[C@@H]2[C@H](NC(=O)[C@H](C(=O)O)c3ccsc3)C(=O)N2[C@H]1C(=O)O`
1

* * *

tested on: Capnocytophaga sputigena; assay: Antimicrobial activity against Capnocytophaga sputigena CIP 104301T after 2 days by agar dilution method; assay type: functional; conditions: 48 h
So I've got a bunch of compounds here, and I need their MIC values.
Give bare numbers, in µg/mL.

CC(=O)OCC1=C(C(=O)O)N2C(=O)[C@@H](NC(=O)Cc3cccs3)[C@H]2SC1 [CEPHALOTHIN] : 0.25
C[C@@H](O)[C@H]1C(=O)N2C(C(=O)O)=C(SCCNC=N)C[C@H]12 [IMIPENEM ANHYDROUS] : 0.06

--- query ---
Specify measured MIC for CC1(C)S[C@@H]2[C@H](NC(=O)[C@H](C(=O)O)c3ccsc3)C(=O)N2[C@H]1C(=O)O [TICARCILLIN] .
0.25

* * *

system: Escherichia coli; experiment: Antimicrobial activity against Escherichia coli TOP10(pNOR-1) expressing CSP-1 gene after 2 days by agar dilution method; type: functional; conditions: 48 h
metric.name: log10 of MIC (log10 of the value in µg/mL)
Could you please treat all values as log10 of MIC in µg/mL?

Some entries whose results are on file:
C[C@@H](O)[C@H]1C(=O)N2C(C(=O)O)=C(SCCNC=N)C[C@H]12 [IMIPENEM ANHYDROUS] : -1.22
CO/N=C(\C(=O)N[C@@H]1C(=O)N2C(C(=O)O)=C(COC(C)=O)CS[C@H]12)c1csc(N)n1 : 0.90
CCN1CCN(C(=O)N[C@@H](C(=O)N[C@@H]2C(=O)N3[C@@H]2SC(C)(C)[C@@H]3C(=O)O)c2ccccc2)C(=O)C1=O : 1.20
CC(C)(O/N=C(\C(=O)N[C@@H]1C(=O)N2C(C(=O)[O-])=C(C[n+]3ccccc3)CS[C@H]12)c1csc(N)n1)C(=O)O : -0.30
CO/N=C(\C(=O)N[C@@H]1C(=O)N2C(C(=O)O)=C(COC(N)=O)CS[C@H]12)c1ccco1 : 2.41

// batch mode: one log10 of MIC value per listed entry
1. CO/N=C(\C(=O)N[C@@H]1C(=O)N2C(C(=O)[O-])=C(C[N+]3(C)CCCC3)CS[C@H]12)c1csc(N)n1 [CEFEPIME]
2. C[C@H]1[C@H](NC(=O)/C(=N\OC(C)(C)C(=O)O)c2csc(N)n2)C(=O)N1S(=O)(=O)O
3. CO[C@@]1(NC(=O)Cc2cccs2)C(=O)N2C(C(=O)O)=C(COC(N)=O)CS[C@@H]21

1. 0.60
2. 1.20
3. 0.30
